Collected IC50 values appear next to each entry.
- Tested on: SK-Mel-103
- TEST_PROTOCOL: Suppression of proliferation / senescence induction in melanoma line
- Format: cell-based
- RUN_PARAMETERS: Homo sapiens
- From the text: 260 analogs of N77A7 were selected from several commercially available libraries of small molecules based on the structural similarities with N77A7. The compounds were screened for the ability to permanently suppress proliferation and induce senescence in cells from melanoma lines SK-Mel-19 and SK-Mel-103. Based on the above-described screening procedure, seven small molecules were identified as having IC50 values lower than that of N77A7.
Supply the numeric figure in nM, leaving out any unit text.

Before answering, review these 7 worked examples.
CHEMICAL_SMILES	IC50 / nM
Cc1ccc(/C=N/NC(=O)c2cc(-c3ccccc3)n[nH]2)c(O)c1	2500
Nc1nonc1-n1nnc(C(=O)N/N=C/c2ccccc2O)c1CN1CCc2ccccc2C1	350
CCN(CC)c1ccc(/C=N/NC(=O)Cn2c3ccccc3c(=O)c3ccccc32)c(O)c1	400
CCN(CC)c1ccc(/C=N/NC(=O)Cn2nnc(-c3ccccc3)n2)c(O)c1	3000
CCCN(CCC)Cc1c(C(=O)N/N=C/c2ccc(N(CC)CC)cc2O)nnn1-c1nonc1N	250
CCN(CC)c1ccc(/C=N/NC(=O)c2cc(C)n[nH]2)c(O)c1	500
CCN(CC)Cc1c(C(=O)N/N=C/c2ccc(N(CC)CC)cc2O)nnn1-c1nonc1N	250

Could you now look at the following compound, please?
Prompt line: Please tell me the measured IC50 for "CCN(CC)c1ccc(/C=N\NC(=O)c2nnn(-c3nonc3N)c2CN2CCCCCC2)c(O)c1" ; system: SK-Mel-103.
Response line: 100

###

The following compounds are listed with their measured Myc Index N values.
- Test system: HO-N-myc cells
- TEST_PROTOCOL: Secondary filter for Myc specificity: cell growth inhibition, methylene blue staining
- Assay type: cell-based, rat
- RUN_PARAMETERS: ID50 in HO-null cells divided by ID50 in HO—N-myc cells
Please state the value as a number alone, without comment.

Solved cases below.
CHEMICAL_SMILES	MEASURE	EXPERIMENTAL_VALUE
CC(C)Nc1ncnc2ccc(Br)cc12	Myc Index N	6
CN1C(=O)/C(=C\c2cn(Cc3ccccc3)c3ccccc23)C(=O)NC1=S	Myc Index N	17
CCN(CC)c1ccc(/C=N/NC(=O)Cn2nnc(-c3ccccc3)n2)c(O)c1	Myc Index N	4.5

For the next question, use this compound.
Prompt line: Report value only: Myc Index N, HO-N-myc cells, "COCc1cc(CN(C)C2CCCCC2)c(O)c2ncccc12"
Response line: 5.3

###

- TEST_PROTOCOL: in vitro
- RUN_PARAMETERS: human, microsomes, 10 min, 1 μM, pH 7.4
MEASURE: Percent Remaining 10 min (%)
Please state the figure in %; there is no need to write the unit.

The examples below pair each entry with its known result.
CHEMICAL_SMILES	UNIT_TAG	Percent Remaining 10 min
CCN(CC)Cc1c(C(=O)N/N=C/c2ccc(N(CC)CC)cc2O)nnn1-c1nonc1N	%	49
CCN(CC)c1ccc(/C=N/NC(=O)c2cc(C)n[nH]2)c(O)c1	%	93
CCCN(CCC)Cc1c(C(=O)N/N=C/c2ccc(N(CC)CC)cc2O)nnn1-c1nonc1N	%	46
CCN(CC)c1ccc(/C=N/NC(=O)Cn2c3ccccc3c(=O)c3ccccc32)c(O)c1	%	119
CCN(CC)c1ccc(/C=N/NC(=O)Cn2nnc(-c3ccccc3)n2)c(O)c1	%	87

Moving on to another compound below.
Prompt line: Return value of Percent Remaining 10 min for input "CCN(CC)c1ccc(/C=N\NC(=O)c2nnn(-c3nonc3N)c2CN2CCCCCC2)c(O)c1" , no commentary.
Response line: 56
